experimental_system: CXCR7 (Homo sapiens (Human))
test_details: PathHunter CHO-K1 CXCR7 b-arrestin assay (agonistic activity)
settings: PathHunter CHO-K1 CXCR7 b-arrestin cell line
metric_name: EC50

Known EC50 results, listed for orientation:
compound	EC50
O=C(Nc1cccc(CN2CCC(C(=O)NC3CCCCC3)CC2)c1)c1ccc(Cl)c(Cl)c1	5 nM
O=C(Nc1cccc(CN2CCC(C(=O)NC3CCCCC3)CC2)c1)c1ccc(C(F)(F)F)nc1	7 nM
CC(C)(C)NC(=O)C1CCN(Cc2cccc(NC(=O)c3cccc(C(F)(F)F)[n+]3[O-])c2)CC1	1 nM

Note: attention shifts to another entry.
Query block: What EC50 value was documented for this compound, CCC(c1cccc(NC(=O)c2cncc(C)c2)c1)N1CCC(C(=O)NC2CCCCC2)CC1 (racemic) ?
Result block: 350 nM

---

experimental_system: CXCR7 (Homo sapiens (Human), UniProt P25106)
Sequence (P25106 whole entry): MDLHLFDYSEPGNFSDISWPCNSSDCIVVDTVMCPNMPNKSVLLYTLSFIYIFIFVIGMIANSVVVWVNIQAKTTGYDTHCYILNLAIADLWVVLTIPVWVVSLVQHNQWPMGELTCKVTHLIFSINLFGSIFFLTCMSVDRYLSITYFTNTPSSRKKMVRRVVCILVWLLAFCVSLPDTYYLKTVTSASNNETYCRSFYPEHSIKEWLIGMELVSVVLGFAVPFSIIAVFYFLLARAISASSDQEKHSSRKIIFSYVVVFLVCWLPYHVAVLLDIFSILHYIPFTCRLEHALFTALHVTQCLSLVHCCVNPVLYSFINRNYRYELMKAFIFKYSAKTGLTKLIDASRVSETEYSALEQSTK
Sequence (P32121 whole entry partner): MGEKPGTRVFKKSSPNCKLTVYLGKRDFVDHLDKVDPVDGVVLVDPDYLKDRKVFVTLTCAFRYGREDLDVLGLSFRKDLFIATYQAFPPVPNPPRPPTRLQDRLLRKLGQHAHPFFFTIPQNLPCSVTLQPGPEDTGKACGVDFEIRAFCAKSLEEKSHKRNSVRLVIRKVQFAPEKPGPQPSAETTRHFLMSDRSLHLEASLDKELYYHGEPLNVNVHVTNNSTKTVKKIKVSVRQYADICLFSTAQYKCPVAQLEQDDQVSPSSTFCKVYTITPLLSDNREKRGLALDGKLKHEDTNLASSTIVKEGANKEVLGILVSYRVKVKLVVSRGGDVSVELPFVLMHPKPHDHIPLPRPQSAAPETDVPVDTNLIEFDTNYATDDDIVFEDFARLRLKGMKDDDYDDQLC
test_details: PathHunter CHO-K1 CXCR7 b-arrestin assay (agonistic activity)
settings: PathHunter CHO-K1 CXCR7 b-arrestin cell line
Reported pEC50 values follow for various compounds
Recall that pEC50 is obtained by taking minus log10 of the concentration measured in molar.

Known pEC50 results, listed for orientation:
compound	pEC50
CC(C)(C)NC(=O)C1CCN(Cc2cccc(NC(=O)Cc3ncccn3)c2)CC1	7.05
Cc1ccc(C(=O)Nc2cc(CN3CCC(C(=O)NC4CCCCC4)CC3)ccc2Cl)s1	7.85
O=C(Nc1ccc(Cl)c(CN2CCC(C(=O)NC3CCCC3)CC2)c1)c1ccc2ncccc2c1	9.00
Cc1cc(C(=O)Nc2cccc(CN3CCC(C(=O)NC4CC4)CC3)c2)ccn1	7.25
O=C(Nc1cccc(CN2CCC(C(=O)NC3CCCCC3)CC2)c1)c1ccc(Cl)cc1Cl	8.22

Query block: What pEC50 value was documented for this compound, CC(C)(C)CC(=O)Nc1cccc(CN2CCC(C(=O)NC3CCCCC3)CC2)c1 ?
Result block: 7.60

Query block: Param item: CC(c1cccc(NC(=O)Cc2cccc(C(F)(F)F)c2)c1)N1CCC(C(=O)NC2CCCCC2)CC1 (racemic)
Result block: 7.59

Query block: Param item: CC(C)(C)NC(=O)C1CCN(Cc2cccc(NC(=O)c3cccc(C(F)(F)F)n3)c2)CC1
Result block: 9.00

---

experimental_system: CXCR7 (Homo sapiens (Human), UniProt P25106)
test_details: PathHunter CHO-K1 CXCR7 b-arrestin assay (agonistic activity)
settings: PathHunter CHO-K1 CXCR7 b-arrestin cell line
Reported pEC50 values follow for various compounds
Recall that pEC50 is obtained by taking minus log10 of the concentration measured in molar.

compound	experimental_system	pEC50
CC(C)(C)NC(=O)C1CCN(Cc2cccc(NC(=O)C(O)c3ccccc3Cl)c2)CC1 (racemic)	CXCR7 (Homo sapiens (Human), UniProt P25106)	8.22
Cc1cccc(C)c1C(=O)Nc1cccc(CN2CCC(C(=O)NC3CCCCC3)CC2)c1	CXCR7 (Homo sapiens (Human), UniProt P25106)	6.20
CC(C)(C)NC(=O)C1CCN(Cc2cccc(NC(=O)Cc3ccc(F)cc3Cl)c2)C1 (racemic)	CXCR7 (Homo sapiens (Human), UniProt P25106)	7.43
CC(C)(C)NC(=O)C1CCN(Cc2cccc(NC(=O)C3CCOC3)c2)CC1 (racemic)	CXCR7 (Homo sapiens (Human), UniProt P25106)	6.65
O=C(Nc1cccc(CN2CCC(C(=O)NC3CCCCC3)CC2)c1)c1cc(Cl)cc(Cl)c1	CXCR7 (Homo sapiens (Human), UniProt P25106)	7.66

Note: attention shifts to another entry.
Query block: What pEC50 value was documented for this compound, CC(C)(C)NC(=O)C1CCN(Cc2cccc(NC(=O)Cc3cccc(C(F)(F)F)c3Cl)c2)CC1 ?
Result block: 8.70

---

experimental_system: CXCR7 (Homo sapiens (Human))
test_details: PathHunter CHO-K1 CXCR7 b-arrestin assay (agonistic activity)
settings: PathHunter CHO-K1 CXCR7 b-arrestin cell line
Binned EC50; ranges: lower segment = under 2 nM, middle segment = from 2 nM up to 10 nM, upper segment = 10 nM and over

Query block: Entry C[C@@H]1C[C@H](C(=O)NC2CCCCC2)CCN1Cc1cccc(NC(=O)c2cccc(C(F)(F)F)n2)c1 [Example 2.106] belongs to which category?
Result block: upper segment

Query block: Param item: O=C(Nc1cc(CN2CCC(C(=O)NC3CCCCC3)CC2)ccc1Cl)c1ccc(Cl)cc1 [Example 1.160]
Result block: middle segment

Query block: Param item: COc1cc(CN2CCC(C(=O)NC(C)(C)C)CC2)cc(NC(=O)c2cccc(C(F)(F)F)n2)c1 [Example 1.325]
Result block: upper segment

---

experimental_system: UniProtKB P25106
test_details: PathHunter CHO-K1 CXCR7 b-arrestin assay (agonistic activity)
settings: PathHunter CHO-K1 CXCR7 b-arrestin cell line
Reported pEC50 values follow for various molecules
Recall that pEC50 is obtained by taking minus log10 of the concentration measured in molar.

Known pEC50 results, listed for orientation:
molecule	pEC50
O=C(Nc1cccc(CN2CCC(C(=O)NC3CCCCC3)CC2)c1)c1cncc(C(F)(F)F)c1	8.30
CC(c1cccc(NC(=O)c2ccc(Cl)cn2)c1)N1CCC(C(=O)NC2CCCCC2)CC1 (racemic)	8.70
O=C(Nc1cccc(CN2CCC(C(=O)NC3CCCCC3)CC2)c1)c1cc(F)cc(F)c1	8.70
O=C(Nc1cccc(CN2CCC(C(=O)NC3CC3)CC2)c1)c1ccc(F)cc1	8.52
O=C(Nc1cccc(CN2CCC(C(=O)NC3CCCCC3)CC2)c1)c1ccccn1	9.00
O=C(Nc1cccc(CN2CCC(C(=O)NC3CCCCC3)CC2)c1)c1ccncc1Cl	7.22
CC(C)(C)NC(=O)C1CCN(Cc2cccc(NC(=O)c3ccc4cnccc4n3)c2)CC1	8.70
COc1ccc(C(=O)Nc2cccc(CN3CCC(C(=O)NC4CCCCC4)CC3)c2)cc1F	8.40
COc1ccc(C(=O)Nc2cc(CN3CCC(C(=O)NC4CCCCC4)CC3)ccc2Cl)cc1	7.85
COc1ccccc1CC(=O)Nc1cccc(CN2CCC(C(=O)NC3CCCCC3)CC2)c1	8.40

Query block: What pEC50 value was documented for this molecule, Cc1c(CN2CCC(C(=O)NC(C)(C)C)CC2)cccc1NC(=O)c1ccc(F)cc1 ?
Result block: 7.72

Query block: Param item: Cc1cc(C)cc(C(=O)Nc2cccc(CN3CCC(C(=O)NC4CCCCC4)CC3)c2)c1
Result block: 7.68

Query block: Param item: CCc1cncc(C(=O)Nc2cccc(CN3CCC(C(=O)NC4CCCCC4)CC3)c2)c1
Result block: 8.70

Query block: Param item: O=C(Nc1ccnc(CN2CCC(C(=O)NC3CCCCC3)CC2)n1)c1cccc(C(F)(F)F)n1
Result block: 6.65

Query block: Param item: CC(C)(C)NC(=O)C1CCN(Cc2cccc(NC(=O)C3CNc4ccccc43)c2)CC1 (racemic)
Result block: 7.82

Query block: Param item: Cc1cc(C(=O)Nc2cccc(CN3CCC(C(=O)NC4CCCCC4)CC3)c2)cc(C2CCCC2)n1
Result block: 7.39

---

experimental_system: CXCR7 (Homo sapiens (Human), UniProt P25106)
test_details: PathHunter CHO-K1 CXCR7 b-arrestin assay (agonistic activity)
settings: PathHunter CHO-K1 CXCR7 b-arrestin cell line
Reported pEC50 values follow for various compounds
Recall that pEC50 is obtained by taking minus log10 of the concentration measured in molar.

Known pEC50 results, listed for orientation:
compound	experimental_system	metric_name	val
COc1ccc(OCC(=O)Nc2cccc(C(C)N3CCC(C(=O)NC4CCCCC4)CC3)c2)cc1 (racemic)	CXCR7 (Homo sapiens (Human), UniProt P25106)	pEC50	6.74
O=C(Nc1cccc(CN2CCC(C(=O)NC3CCCCC3)CC2)c1)c1ccc2ccccc2c1	CXCR7 (Homo sapiens (Human), UniProt P25106)	pEC50	8.22
CC(c1cccc(NC(=O)c2ccc(C(F)(F)F)cc2)c1)N1CCC(C(=O)NC2CCCCC2)CC1 (racemic)	CXCR7 (Homo sapiens (Human), UniProt P25106)	pEC50	7.43
CCc1ccc(C(=O)Nc2cccc(CN3CCC(C(=O)NC4CCCCC4)CC3)c2)cc1	CXCR7 (Homo sapiens (Human), UniProt P25106)	pEC50	8.30

Query block: What pEC50 value was documented for this compound, O=C(Nc1cccc(CN2CCC(C(=O)NC3CCCCC3)CC2)c1)c1cc(F)cc(Cl)c1 ?
Result block: 8.40

Query block: Param item: COc1ccc(CN2CCC(C(=O)NC(C)(C)C)CC2)cc1NC(=O)c1cccc(C(F)(F)F)n1
Result block: 8.40

Query block: Param item: Cc1cc(CN2CCC(C(=O)NC(C)(C)C)CC2)cc(NC(=O)c2cccc(C(F)(F)F)n2)c1
Result block: 7.44

Query block: Param item: N#Cc1ccc(C(=O)Nc2cccc(CN3CCC(C(=O)NC4CCCCC4)CC3)c2)cc1
Result block: 8.10
